Source of measurements: ChEMBL document CHEMBL1201862

# Test system: LOX IMVI
# Test: NCI tumour cell line growth inhibition, 48 h
Active and inactive are the calls of the source. Cut-off read from the data, not from the text of the source: active = GI50 up to about 1.1 µM and inactive = higher.
Write down one outcome, taken from active, inactive

Q: // param item: COc1ccc(CC2NCCc3c2[nH]c2ccccc32)cc1 (centres undefined) ; yields the recorded call
Result: inactive

Q: What about Cc1nc(Nc2ccc(F)cc2)c2sc(=S)n(-c3ccc(F)cc3)c2n1 ?
Result: inactive

Q: What about CN(C)CCn1c(=O)c2ccc(NCCCN(C)CCCNc3ccc4c(=O)n(CCN(C)C)c(=O)n5c6ccccc6c(=O)c3c45)c3c(=O)c4ccccc4n(c1=O)c23 ?
Result: active

Q: What about FC(F)(F)c1ccc2c(c1)N(CCCNCCN1CCOCC1)c1ccccc1S2 ?
Result: inactive

Q: What about COc1cc2c(cc1OC)-c1cc(OC)c(OC)cc1[C@H]1CN3CCC[C@@]3(O)C=C21 ?
Result: active

Q: What about Nc1ccc(C2NC(=O)Cc3c2ccc2ccccc32)cc1 (centres undefined) ?
Result: inactive

Q: What about C[C@H](NC(=O)C(Cc1ccccc1)(Cc1ccc(O)cn1)NC(=O)c1ccccc1)c1ccccc1 (some centres undefined) ?
Result: inactive

Q: What about CC1=NN(c2nc(N)nc(/C(C#N)=C\C3COc4ccccc4C3=O)n2)C(C)(C)C1 (centres undefined) ?
Result: inactive

Q: What about [O-][S+]1c2ccccc2N=C(c2ccc(Cl)cc2)CC1c1cccs1 (centres undefined) ?
Result: inactive
